- ASSAY_TARGET: T1, human chemokine (C-C motif) receptor 8 (CCR8) protein (human, UniProt P51685 1-355)
- T1 construct: whole, on cells; also called human CCR8
- PROTOCOL_DETAILS: cell binding, CCR8-expressing U2OS cells, curve fit
- Parameters: unit not given here
READOUT_TYPE: LogEC50
The answer should be a number; do not append a unit.

get_value(item= 88-H2L2 (antibody, V domains shown, Humanized 88D2C6) VH: EVQLVESGGGLVQPGGSLKLSCAASGFTFNPNAMNWVRQASGKGLEWVGRIRSKSNNYATYYADSVKDRFTISRDDSKNTAYLQMNNLKTEDTAVYYCVRGKDDGYRHYAMDYWGQGTTVTVSS VL: DIVMTQSPLSLPVTPGEPASISCRSSKSLLHSNANTYLYWFLQKPGQSPQLLIYRMSNLASGVPDRFSGSGSGTAFTLKISRVEAEDVGVYYCMQHLEYPFTFGGGTKVEIK , readout=LogEC50) returns -0.724
